B1: library; numbered along this chain (parent)
chain: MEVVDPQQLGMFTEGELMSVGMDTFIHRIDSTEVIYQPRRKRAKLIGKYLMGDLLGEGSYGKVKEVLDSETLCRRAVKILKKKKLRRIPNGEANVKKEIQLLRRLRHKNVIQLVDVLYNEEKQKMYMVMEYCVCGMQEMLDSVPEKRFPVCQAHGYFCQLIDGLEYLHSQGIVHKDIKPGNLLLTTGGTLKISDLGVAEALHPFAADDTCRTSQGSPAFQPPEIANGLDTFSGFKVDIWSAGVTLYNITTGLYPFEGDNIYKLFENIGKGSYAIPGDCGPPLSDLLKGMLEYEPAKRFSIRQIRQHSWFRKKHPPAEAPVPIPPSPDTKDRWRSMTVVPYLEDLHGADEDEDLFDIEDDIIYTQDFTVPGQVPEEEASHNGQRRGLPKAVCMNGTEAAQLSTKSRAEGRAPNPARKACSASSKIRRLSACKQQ

Variants of: B1
assay-comment: STK11 functional score (HeLa growth suppression), rescaled enrichment; synonymous median = 1, nonsense median = 0 (normalised score)
run-conditions: with HeLa; variant type: missense
I would appreciate it if you labelled entries yes (1) when STK11 functional score is 1 or higher, otherwise no (0).

Reported STK11 functional score reaches at least 1 for `E407D` ?
yes (1)

Is the recorded value of STK11 functional score equal to or greater than 1 for this variant? `Q214A`
yes (1)

# check: STK11 functional score of `K403A` is greater than or equal to 1
yes (1)

Entry `V34D` : is its STK11 functional score no less than 1?
no (0)

Item `N181K` with STK11 functional score of 1 or above?
no (0)

Would you say `P294L` shows STK11 functional score at minimum 1?
no (0)

Entry `K191I` : is its STK11 functional score no less than 1?
yes (1)

Please check the record `E374S` and state if its STK11 functional score is at or above 1.
yes (1)

// inclusive: STK11 functional score at least 1? input: `G58I`
no (0)

Quick check: does `V3M` have STK11 functional score greater than or equal to 1?
no (0)

Tell me whether STK11 functional score is at least 1 here: `T249L`
yes (1)

# bool: STK11 functional score of `L290S` >= 1
no (0)

Is reported STK11 functional score greater than or equal to 1 here: `D350P`
yes (1)

Given `P217W` , state whether its STK11 functional score is at least 1.
yes (1)

Hi, just wondering whether `A200D` shows STK11 functional score of 1 or higher.
no (0)

Test whether the variant `R147M` records STK11 functional score of 1 or higher.
yes (1)

# bool: STK11 functional score of `D327H` >= 1
yes (1)

Does `A205V` have a reported STK11 functional score of at least 1?
yes (1)

Is STK11 functional score at least 1? Consider `Q305I`
yes (1)

Does `N94W` have a reported STK11 functional score of at least 1?
no (0)

Has `Y156L` a recorded STK11 functional score greater than or equal to 1?
yes (1)

Check if STK11 functional score >= 1 (inclusive). Item: `R425A`
yes (1)

Form field: STK11 functional score at least 1? Entry: `Q382A`
yes (1)

Does `D359E` have a reported STK11 functional score of at least 1?
no (0)

Could you verify whether the entry `G270L` shows STK11 functional score of no less than 1?
no (0)

Does the variant `Y60R` have recorded STK11 functional score that is 1 or more?
yes (1)

Hi team, for `Y156M` , is the recorded STK11 functional score at or above 1?
yes (1)

Quick check: does `M139K` have STK11 functional score greater than or equal to 1?
yes (1)

Answer whether STK11 functional score of `G242L` is greater than or equal to 1.
no (0)

Could you verify whether the entry `S421D` shows STK11 functional score of no less than 1?
yes (1)

Identify whether the reported STK11 functional score of the following variant is 1 or greater: `A273S`
no (0)

Check the entry `H27G` : does STK11 functional score equal or exceed 1?
yes (1)

Does `I161L` have a reported STK11 functional score of at least 1?
no (0)

Check this variant for STK11 functional score at or above 1: `G394Q`
yes (1)

Threshold query (STK11 functional score >= 1) on `T32A`
yes (1)

Kindly determine if STK11 functional score recorded for `G279Q` is above or exactly 1.
yes (1)

Please tell me: is the variant `L9A` at or over 1 in terms of STK11 functional score?
yes (1)

Please check the record `Q302K` and state if its STK11 functional score is at or above 1.
no (0)

Answer whether STK11 functional score of `I260A` is greater than or equal to 1.
no (0)

Entry `C278D` : is its STK11 functional score no less than 1?
yes (1)

Please check the record `T328S` and state if its STK11 functional score is at or above 1.
yes (1)

Please check the record `G270H` and state if its STK11 functional score is at or above 1.
yes (1)

Hello, I need to know if `I29E` has measured STK11 functional score not below 1. Thanks!
yes (1)

Reported STK11 functional score at or above 1? `V372F`
yes (1)

Please check the record `R28V` and state if its STK11 functional score is at or above 1.
yes (1)

Could you please find out whether `E33D` has STK11 functional score that meets 1 or exceeds it?
yes (1)

I'd appreciate it if you could say whether `S419Y` has STK11 functional score at least equal to 1.
yes (1)

STK11 functional score >= 1 for `E70G` ?
no (0)

Decide: is the reported value of STK11 functional score for `E98R` equal to or greater than 1?
no (0)

Assess whether reported STK11 functional score for `E98A` sits at 1 or higher.
no (0)

Determine whether measured STK11 functional score meets or exceeds 1 for `I300G`
no (0)

Textbook exercise: given the entry `K178T` , state whether its STK11 functional score is greater than or equal to 1.
no (0)

// inclusive: STK11 functional score at least 1? input: `F148P`
no (0)

Determine whether this variant has STK11 functional score no lower than 1: `Y156V`
yes (1)

Form field: STK11 functional score at least 1? Entry: `D355S`
yes (1)

Is it the case that `G381I` has STK11 functional score reaching or exceeding 1?
yes (1)

Could you please find out whether `C278E` has STK11 functional score that meets 1 or exceeds it?
yes (1)

Is STK11 functional score for `C158V` at or above 1?
no (0)

Identify whether the reported STK11 functional score of the following variant is 1 or greater: `A398G`
yes (1)

Hello, I need to know if `E291M` has measured STK11 functional score not below 1. Thanks!
yes (1)

Please indicate if the recorded STK11 functional score for `K62L` meets or exceeds 1.
yes (1)

Reported STK11 functional score reaches at least 1 for `S421I` ?
yes (1)

Entry `V337L` : is its STK11 functional score no less than 1?
no (0)

Exam item: decide whether the reported STK11 functional score for `I88W` is at least 1.
no (0)

Does the variant `L286E` have recorded STK11 functional score that is 1 or more?
no (0)

# check: STK11 functional score of `Y126A` is greater than or equal to 1
yes (1)

hey, is STK11 functional score for this one >= 1? `I177V`
yes (1)

Can `D53H` be said to have STK11 functional score at or above 1?
yes (1)

hey, is STK11 functional score for this one >= 1? `Q137K`
no (0)

Does STK11 functional score meet or surpass 1 for `G187T` ?
yes (1)

Tell me whether STK11 functional score is at least 1 here: `T328P`
yes (1)

Check this variant for STK11 functional score at or above 1: `I424Y`
yes (1)

Exam item: decide whether the reported STK11 functional score for `R383P` is at least 1.
yes (1)

Form field: STK11 functional score at least 1? Entry: `F354T`
no (0)

Does the reported STK11 functional score for `N181W` fall at or above the 1 mark?
no (0)

Tell me whether STK11 functional score is at least 1 here: `V63L`
no (0)

Tell me whether STK11 functional score is at least 1 here: `W332A`
yes (1)

Is STK11 functional score for `K388D` at or above 1?
yes (1)

Is STK11 functional score for `S19W` at or above 1?
yes (1)

STK11 functional score >= 1 for `Q399H` ?
yes (1)

In plain terms: is recorded STK11 functional score at least 1 for `C73M` ?
yes (1)

Confirm if STK11 functional score reported for the variant `A347T` is 1 or above.
yes (1)

Does STK11 functional score meet or surpass 1 for `P144N` ?
yes (1)

Please tell me: is the variant `C151R` at or over 1 in terms of STK11 functional score?
yes (1)

Hi, just wondering whether `D258H` shows STK11 functional score of 1 or higher.
yes (1)

Determine whether measured STK11 functional score meets or exceeds 1 for `V337Y`
no (0)

Quick check, STK11 functional score >= 1? `S193A`
no (0)

Reported STK11 functional score reaches at least 1 for `I35R` ?
yes (1)

Reported STK11 functional score at or above 1? `C73I`
no (0)

Determine whether measured STK11 functional score meets or exceeds 1 for `L386G`
yes (1)
